Target: T1, GII.4 Houston 2002 (ABY27560.1) VLPs (human norovirus GII.4 Houston 2002, UniProt P54635 1-539)
T1 construct: also called GII.4 Houston 2002 antigen; GII.4 Houston VLPs
T1 chain: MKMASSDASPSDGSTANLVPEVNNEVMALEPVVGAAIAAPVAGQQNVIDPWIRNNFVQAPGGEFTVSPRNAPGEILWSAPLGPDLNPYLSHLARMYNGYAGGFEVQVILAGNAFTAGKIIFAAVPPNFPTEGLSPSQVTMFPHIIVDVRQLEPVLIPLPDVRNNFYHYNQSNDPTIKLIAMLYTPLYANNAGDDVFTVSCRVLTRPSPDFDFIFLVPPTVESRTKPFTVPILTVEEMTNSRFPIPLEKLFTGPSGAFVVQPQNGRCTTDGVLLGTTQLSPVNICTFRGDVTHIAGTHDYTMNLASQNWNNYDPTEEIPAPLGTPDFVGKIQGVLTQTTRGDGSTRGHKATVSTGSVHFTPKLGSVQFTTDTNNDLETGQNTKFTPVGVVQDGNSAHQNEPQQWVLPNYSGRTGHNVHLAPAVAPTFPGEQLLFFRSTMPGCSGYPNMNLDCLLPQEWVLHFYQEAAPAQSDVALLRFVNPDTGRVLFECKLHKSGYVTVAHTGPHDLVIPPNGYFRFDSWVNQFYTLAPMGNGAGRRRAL
Assay: ELISA on GII.4 Houston 2002 VLPs

binder	binding result
NORO-279A (antibody, V domains shown) VH: QVQLVESGGGVVQPGRSLRLSCAASGFTFTKYGMHWVRQAPGKGLEWVAFIAYDGSVKYYGDSAKGRFAISRDNPKNTVYLQMNSLRAEDTAVYYCAKVEIHYYSNSLLGMDVWGQGTLVTVSS VL: QSVLTQPPSASGTPGQRVTISCSGGNSNIGISYVYWYQHLPGTAPKLLISKNNLRPSGVPDRFSASKSGTSASLAISGLRSEDEAEYYCATLDINMTWVFGGGTKLTVL	binds
NORO-296A (antibody, V domains shown) VH: QVQLVESGGGLVKPGGSLRLSCAASGFTFSEYYMSWVRQAPGKALEWVSYITSSFSSTSYADSVKGRFVISRDNAKNSLYLQMNSLRVEDTAVYYCARYGAEYGSRSFYFLDWGQGTLVTVSS VL: QSVLTQPPSVSGAPEQRVTISCTGSSSNIGAGYDVHWYQVLPGIAPKLLIYDNNKRPSGVPDRFSGSKSGTSASLAITGLQAEDEADYYCQSYDSRLSSNVVFGGGTKLTVL	binds
NORO-273A (antibody, V domains shown) VH: QVQLVQSGAEVKKPGASVKISCKASGYDFTSFPMHWVRLGPGQRLEWMGWISAANGNTKYSQKFQDRFTITRDTSASIVHMELSSLRSEDTAVYYCARGGYSSGLYRYSNYYYGMTVWGQGTLVTVSS VL: DIVMTQTPLSLSVTPGQPASISCKSSESLLHNDRKTYLFWYLQKPGQPPQLLIFQVSNRFSGVPDRFSGSGSGTDFTLRISRVEAEDVGIYYCLQTTQLPLTFGGGTKVEIK	binds
